Target: recombinant CETP (rCETP) (Homo sapiens)
Assay: RTA assay using recombinant CETP (2% RTA)
Type: biochemical
Conditions: RTA assay in 2% human serum; read-out: IC50
Binarize IC50 at 10 nM; below is T, at or above is F.

COCCCc1ccc(OC2CC2)c(-c2ccc(N3CCC3)nc2CN2C(=O)O[C@H](c3cc(C(F)(F)F)cc(C(F)(F)F)c3)[C@@H]2C)c1 | F
COC(=O)c1c(C)c(-c2ccc(OC)c(-c3ccc(N4CCC4)nc3CN3C(=O)O[C@H](c4cc(C(F)(F)F)cc(C(F)(F)F)c4)[C@@H]3C)c2)nn1C | F
COC(=O)Cc1ccc(OC)c(-c2ccc(N3CCC3)nc2CN2C(=O)O[C@H](c3cc(C(F)(F)F)cc(C(F)(F)F)c3)[C@@H]2C)c1 | F

Qu. API: query returns whether the molecule falls strictly under 10 nM in IC50. Query: COc1cc2c(cc1-c1ccc(N3CCC3)nc1CN1C(=O)O[C@H](c3cc(C(F)(F)F)cc(C(F)(F)F)c3)[C@@H]1C)C(CC(=O)O)CC2 (some centres unmarked)
Ans. F

Qu. What about this molecule? "COC(=O)CCc1ccc(OC)c(-c2ccc(N3CCC3)nc2CN2C(=O)O[C@H](c3cc(C(F)(F)F)cc(C(F)(F)F)c3)[C@@H]2C)c1"
Ans. T

Qu. "COc1ccc(CCO)cc1-c1ccc(N2CCC2)nc1CN1C(=O)O[C@H](c2cc(C(F)(F)F)cc(C(F)(F)F)c2)[C@@H]1C" ?
Ans. T

----------
Molecular target: recombinant CETP (rCETP) (Homo sapiens, UniProt P11597)
Sequence (P11597 18-493): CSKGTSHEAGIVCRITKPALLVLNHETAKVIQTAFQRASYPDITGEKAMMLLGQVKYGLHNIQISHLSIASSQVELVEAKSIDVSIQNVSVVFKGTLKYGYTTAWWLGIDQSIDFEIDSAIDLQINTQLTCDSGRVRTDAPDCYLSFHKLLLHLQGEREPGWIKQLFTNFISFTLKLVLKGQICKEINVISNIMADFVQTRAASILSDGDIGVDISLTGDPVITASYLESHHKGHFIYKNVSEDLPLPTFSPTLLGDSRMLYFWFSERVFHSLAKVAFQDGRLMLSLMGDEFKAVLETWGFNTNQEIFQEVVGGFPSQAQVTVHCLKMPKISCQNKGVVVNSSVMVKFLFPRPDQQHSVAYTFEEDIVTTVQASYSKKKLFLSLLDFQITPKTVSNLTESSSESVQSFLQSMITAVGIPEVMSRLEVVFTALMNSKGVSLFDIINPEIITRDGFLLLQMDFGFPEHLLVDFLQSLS
Assay: RTA assay using recombinant CETP (2% RTA)
Type: biochemical
Conditions: RTA assay in 2% human serum; read-out: IC50
pIC50: −log10 of the molar value.
// label = 1 (yes) if pIC50 is not less than 8, otherwise 0 (no)

COC(=O)c1cc(-c2ccc(OC)c(-c3ccc(N4CCC4)nc3CN3C(=O)O[C@H](c4cc(C(F)(F)F)cc(C(F)(F)F)c4)[C@@H]3C)c2)cs1 | 0 (no)
COc1ccc([C@H]2CC[C@H](C(=O)O)CC2)cc1-c1cnc(N2CC(OC)C2)nc1CN1C(=O)O[C@H](c2cc(C(F)(F)F)cc(C(F)(F)F)c2)[C@@H]1C | 0 (no)
COc1ccc(CCC(=O)O)cc1-c1c(CN2C(=O)O[C@H](c3cc(C(F)(F)F)cc(C(F)(F)F)c3)[C@@H]2C)nc(N2CCC2)c(Br)c1C | 1 (yes)
COC(=O)CCc1ccc(OC)c(-c2ccc(N3CCC3)nc2CN2C(=O)O[C@H](c3cc(F)c(F)c(F)c3)[C@@H]2C)c1 | 0 (no)
COC(=O)CC(C)(C)c1ccc(OC)c(-c2ccc(N3CCC3)nc2CN2C(=O)O[C@H](c3cc(F)cc(F)c3)[C@@H]2C)c1 | 0 (no)
COc1ccc(C2C[C@H]2C(=O)O)cc1-c1cnc(N2CC(F)(F)C2)nc1CN1C(=O)O[C@H](c2cc(C(F)(F)F)cc(C(F)(F)F)c2)[C@@H]1C (some centres unmarked) | 0 (no)
C[C@H]1[C@@H](c2cc(C(F)(F)F)cc(C(F)(F)F)c2)OC(=O)N1Cc1nc(N2CCC2)ccc1-c1cc(CCC(=O)O)ccc1OC1CC1 | 0 (no)

Qu. Please indicate if the recorded pIC50 for COC(=O)CCc1ccc(OC)c(-c2c(C)cc(N3CCC3)nc2CN2C(=O)O[C@H](c3cc(C(F)(F)F)cc(C(F)(F)F)c3)[C@@H]2C)c1 (single isomer, unassigned) meets or exceeds 8.
Ans. 1 (yes)

----------
Target: recombinant CETP (rCETP) (Homo sapiens, UniProt P11597)
Test: RTA assay using recombinant CETP (2% RTA)
Type: biochemical
Conditions: RTA assay in 2% human serum; read-out: IC50
Could you please mark 1.0 for values of IC50 below 0.1 µM and 0.0 for values at or above it?

Here are 5 compounds together with their reported answers.
COc1ccc([C@H]2CC[C@H](C(=O)OC)CC2)cc1-c1ccc(N2CCC2)nc1CN1C(=O)O[C@H](c2cccc(C(F)(F)F)c2)[C@@H]1C | 0.0
COc1ccc(-c2csc(C(=O)O)c2)cc1-c1ccc(N2CCC2)nc1CN1C(=O)O[C@H](c2cc(C(F)(F)F)cc(C(F)(F)F)c2)[C@@H]1C | 1.0
COc1ccc(CCc2nc[nH]n2)cc1-c1ccc(N2CCC2)nc1CN1C(=O)O[C@H](c2cc(C(F)(F)F)cc(C(F)(F)F)c2)[C@@H]1C | 1.0
COc1ccc(-c2sc(C(=O)O)c(C)c2C)cc1-c1ccc(N2CCC2)nc1CN1C(=O)O[C@H](c2cc(C(F)(F)F)cc(C(F)(F)F)c2)[C@@H]1C | 1.0
COc1ccc([C@H]2CC[C@H](C(=O)OC)CC2)cc1-c1ccc(N2CCC2)nc1CN1C(=O)O[C@H](c2cccc(C)c2)[C@@H]1C | 0.0

Qu. Strictly below 0.1 µM: is that where IC50 of "C[C@H]1[C@@H](c2cc(C(F)(F)F)cc(C(F)(F)F)c2)OC(=O)N1Cc1nc(N2CCC2)ccc1-c1cc(CCC(=O)O)ccc1Cl" sits?
Ans. 1.0

----------
Biological target: recombinant CETP (rCETP) (Homo sapiens)
Assay: RTA assay using recombinant CETP (2% RTA)
Assay type: biochemical
Details: RTA assay in 2% human serum; read-out: IC50
pIC50: −log10 of the molar value.
# binarize pIC50: threshold 8 inclusive, high side Y, low side N

Some solved cases for reference:
CCOC(=O)CCc1ccc(OC)c(-c2ccc(N3CCC3)nc2CN2C(=O)O[C@H](c3cc(C)cc(C)c3)[C@@H]2C)c1 | N
COc1ccc(CCC(=O)O)cc1-c1cnc(N2CC(F)C2)nc1CN1C(=O)O[C@H](c2cc(C(F)(F)F)cc(C(F)(F)F)c2)[C@@H]1C | N
COc1cc(F)c([C@H]2C[C@H](C(=O)O)C2)cc1-c1ccc(N2CCC2)nc1CN1C(=O)O[C@H](c2cc(C(F)(F)F)cc(C(F)(F)F)c2)[C@@H]1C | Y
COc1ccc([C@H]2CC[C@H](C(=O)OC)CC2)cc1-c1cnc(N2CC(F)(F)C2)nc1CN1C(=O)O[C@H](c2cc(C(F)(F)F)cc(C(F)(F)F)c2)[C@@H]1C | N
COc1ccc(CCC(=O)O)cc1-c1cnc(N2CC(F)(F)C2)nc1CN1C(=O)O[C@H](c2cc(C(F)(F)F)cc(C(F)(F)F)c2)[C@@H]1C | N
CCc1ccc(-c2ccc(C(=O)OC)cc2C)cc1-c1cnc(N2CC(F)(F)C2)nc1CN1C(=O)O[C@H](c2cc(C(F)(F)F)cc(C(F)(F)F)c2)[C@@H]1C | N
COc1ccc(CCc2ncc[nH]2)cc1-c1ccc(N2CCC2)nc1CN1C(=O)O[C@H](c2cc(C(F)(F)F)cc(C(F)(F)F)c2)[C@@H]1C | N
COC(=O)CCc1ccc(OC)c(-c2ccc(N3CCCC3)nc2CN2C(=O)O[C@H](c3cc(C(F)(F)F)cc(C(F)(F)F)c3)[C@@H]2C)c1 | N

Qu. Kindly determine if pIC50 recorded for "COC(=O)CCc1ccc(OC)c(-c2ccc(N3CCC3)nc2CN2C(=O)O[C@H](c3ccc(F)c(F)c3)[C@@H]2C)c1" is above or exactly 8.
Ans. N

Qu. Quick one: "COc1ccc(CCC(=O)N2CCC2)cc1-c1cnc(N2CCC2)nc1CN1C(=O)O[C@H](c2cc(C(F)(F)F)cc(C(F)(F)F)c2)[C@@H]1C"
Ans. N

Qu. How about COc1ccc(C2C[C@H]2C(=O)O)cc1-c1cnc(N2CCC2)nc1CN1C(=O)O[C@H](c2cccc(C(F)(F)F)c2)[C@@H]1C (stereo partly shown) ?
Ans. N

Qu. Cool, now "CCOC(=O)C[C@@H]1CCc2cc(OC)c(-c3ccc(N4CCC4)nc3CN3C(=O)O[C@H](c4cc(F)cc(F)c4)[C@@H]3C)cc21"
Ans. N

Qu. Try this compound too: "COc1ccc([C@H]2CC[C@H](C(=O)O)CC2)cc1-c1cnc(N2CCC2)nc1CN1C(=O)O[C@H](c2cc(C(F)(F)F)cc(C(F)(F)F)c2)[C@@H]1C"
Ans. N

Qu. Next: COc1ccc([C@H]2C[C@@H](C(=O)OC)C2)cc1-c1c(C)cc(N2CCC2)nc1CN1C(=O)O[C@H](c2cc(C(F)(F)F)cc(C(F)(F)F)c2)[C@@H]1C (single isomer, unassigned) [Example 41]
Ans. Y

Qu. Now this one: "COc1ccc(Cl)cc1-c1ccc(N2CCC2)nc1CN1C(=O)O[C@H](c2cc(C(F)(F)F)cc(C(F)(F)F)c2)[C@@H]1C"
Ans. Y

Qu. Request: "COC(=O)[C@H]1CC[C@H](c2ccc(Cl)c(-c3cnc(N4CC(OC)C4)nc3CN3C(=O)O[C@H](c4cc(C(F)(F)F)cc(C(F)(F)F)c4)[C@@H]3C)c2)CC1"
Ans. N

Qu. Also "COc1cc(F)c(-c2ccc(C(=O)O)cc2C)cc1-c1ccc(N2CCC2)nc1CN1C(=O)O[C@H](c2cc(C#N)cc(C(F)(F)F)c2)[C@@H]1C" ?
Ans. N
